test system: CWR22R; assay: Antitumor activity against human CWR22R cells; format: functional, cell-based; conditions: 22Rv1
recorded.metric: IC50 (nM)
Write it as a number; the unit nM goes unstated.

Looking up COc1ccc([C@H]2SS[C@@]34C[C@]5(O)[C@H](Cl)C=C[C@@H](O)[C@@H]5ON3C(=O)[C@@H]2N(C)C4=O)c(O)c1OC , I found its IC50 recorded as 510
